Measured values drawn from ChEMBL document CHEMBL4017507 for this set.

Experiment: Cytotoxicity against human HEL cells assessed as alteration to cell morphology by microscopic analysis
Format: cell-based
Measure Name: MCC

Compound | MCC
C[C@H](NP(=O)(OCC(COP(=O)(N[C@@H](C)C(=O)OCc1ccccc1)Oc1ccccc1)SCn1cnc2c(=O)[nH]c(N)nc21)Oc1ccccc1)C(=O)OCc1ccccc1 (some centres not stated) | 50 to 100 µM
COc1nc(N)nc2c1ncn2CCC(CO)COP(=O)(N[C@@H](C)C(=O)OCc1ccccc1)Oc1cccc2ccccc12 (some centres not stated) | 50 to 100 µM
CC(C)(NP(=O)(OCC(COP(=O)(NC(C)(C)C(=O)OCc1ccccc1)Oc1ccccc1)OCn1cnc2c(=O)[nH]c(N)nc21)Oc1ccccc1)C(=O)OCc1ccccc1 (configuration not stated) | > 50 µM
COc1nc(N)nc2c1ncn2CCC(COP(=O)(N[C@@H](C)C(=O)OCc1ccccc1)Oc1ccccc1)COP(=O)(N[C@@H](C)C(=O)OCc1ccccc1)Oc1ccccc1 (some centres not stated) | 50 to 100 µM
COc1nc(N)nc2c1ncn2CCC(CO)COP(=O)(N[C@@H](C)C(=O)OCc1ccccc1)Oc1ccccc1 (some centres not stated) | 50 to 100 µM
C[C@H](NP(=O)(OCC(COP(=O)(N[C@@H](C)C(=O)OCc1ccccc1)Oc1cccc2ccccc12)OCn1cnc2c(=O)[nH]c(N)nc21)Oc1cccc2ccccc12)C(=O)OCc1ccccc1 (some centres not stated) | 50 to 100 µM

Next, consider the following compound.
Prompt line: // query MCC value for entry `Nc1nc(Cl)c2ncn(CCC(CO)CO)c2n1`
Response line: 50 to 100 µM
